experiment-summary: yeast growth modulation, basal conditions, primary screen, YJM789 clinical isolate, OD600, 24 h (AID 1089);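 also: growth of clinical yeast isolate S. cerevisiae YJM 789 seeded 1000 cells per well; test concentration not given here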
condition-notes: S. cerevisiae YJM789 growth, higher = more signal, called active from +8 up or from −8 down
# z-score >= 0.07 gives Criterion met, anything below gives Criterion not met

>  <molecule>
C=CCOC(=O)[C@H]1[C@@H]2C(=O)O[C@@H](c3ccccc3)[C@@H](c3ccccc3)N2[C@@H](c2ccc(OCCOC(=O)[C@@H]3C[C@@H]4C(=O)N[C@@H](CCCCNC(C)=O)C(=O)N4[C@@H]3c3ccc(O)cc3)cc2)[C@]12C(=O)Nc1ccccc12

>  <class-name>
Criterion met

$$$$

input: Does CCOC(=O)C[C@H]1[C@H](OC(=O)c2ccc(-c3ccccc3)cc2)[C@@H](NC(=O)Cc2ccc(OC)cc2)c2cc(OCCCO)ccc2N1C(=O)c1ccccc1 have a reported z-score of at least 0.07?
output: Criterion met

input: Evaluate C#C[C@H](O[Si](C#Cc1ccc(Oc2ccccc2)cc1)(C(C)C)C(C)C)c1ccccc1 : z-score at minimum 0.07?
output: Criterion not met

input: Given the entry COC(=O)[C@@]1(Cc2ccc(F)cc2)[C@H]2c3cc(C(=O)N(C)C)n(Cc4cc(F)c(F)c(F)c4)c3C[C@H]2CN1C(=O)c1ccccc1 , answer whether its z-score meets or surpasses 0.07.
output: Criterion not met

input: I'd appreciate it if you could say whether COCCOC(=O)N1C(=O)[C@@]2(c3cc(C#CCCO)ccc31)[C@H](C(=O)N1CCCCCCC1)[C@H]1C(=O)O[C@H](c3ccccc3)[C@H](c3ccccc3)N1[C@@H]2c1ccc(OCCO)cc1 has z-score at least equal to 0.07.
output: Criterion met

input: Is z-score for COc1cc2c(cc1OC)CN(C(=O)[C@H]1[C@@H]3C(=O)O[C@@H](c4ccccc4)[C@@H](c4ccccc4)N3[C@@H](c3ccc(O)cc3)[C@]13C(=O)Nc1ccccc13)CC2 at or above 0.07?
output: Criterion met

input: Exam item: decide whether the reported z-score for C=C(C(=O)CC[C@@H](OC(=O)c1cccnc1)c1ccccc1OCCO)C(C)C is at least 0.07.
output: Criterion not met

input: Decide: is the reported value of z-score for C=C(COC)/C(=C/C[C@@H](OC(=O)c1ccncc1)c1ccc(CO)o1)c1cc(C(=O)OC)ccc1OC equal to or greater than 0.07?
output: Criterion met

input: Determine whether this molecule has z-score no lower than 0.07: COC(=O)[C@@]1(Cc2ccc(F)cc2)[C@H]2c3cc(C(=O)N4CCCC4)n(CCCNc4ncc(C(F)(F)F)cc4Cl)c3C[C@H]2CN1C(=O)c1ccccc1
output: Criterion met

input: Reported z-score at or above 0.07? C=C(COC)C(=O)CC[C@@H](OC(C)=O)c1ccc(CO)o1
output: Criterion not met

input: Is it the case that CCCC[C@H]1OB(O)C[C@H]2C1=C(COC)C[C@H]1C(=O)N(C)C(=O)[C@H]12 has z-score reaching or exceeding 0.07?
output: Criterion not met

input: Exam item: decide whether the reported z-score for C[C@H]1C2[C@H](Cc3ccccc3)NC(=O)[C@]23C(=O)N[C@H](Cc2ccccc2)C(=O)N2CCC[C@H]2C(=O)NC/C=C\C/C=C/C3[C@@H]2O[C@]12C (some centres undefined) is at least 0.07.
output: Criterion not met
